The reported measurements were obtained from paper PMC10385850.

Measured Average motility of 3 parasites treated with 13.3 µM, 72 hours accompanies every entry in the list below.
- System: adult F. hepatica flukes (Italian strain)
- test-summary: Ex vivo dose response motility assay on adult liver flukes (Italian strain)
- Assay type: cell-based, Fasciola hepatica
- measurement-context: 13.3 µM, 72 h; adult flukes Italian strain; score 1 to 6
attribute-measured: Average motility of 3 parasites treated with 13.3 µM, 72 hours

compound	meas-value
CC1(C)CC[C@]2(NC(=O)N3CCCC3)CC[C@]3(C)C(=CCC4[C@@]5(C)CC[C@H](O)[C@@](C)(CO)C5CC[C@]43C)C2C1 (stereo partly drawn)	4.66 (3.3;5.9)
CC1(C)CC[C@]2(NC(=O)N3CCNCC3)CC[C@]3(C)C(=CCC4[C@@]5(C)CCC6OC(C)(C)OC[C@@]6(C)C5CC[C@]43C)C2C1 (stereo partly drawn)	3.66 (2.3; 4.9)
CC1(C)CC[C@]2(NC(=O)N3CCOCC3)CC[C@]3(C)C(=CCC4[C@@]5(C)CC[C@@H]6OC(C)(C)OC[C@@]6(C)C5CC[C@]43C)C2C1 (stereo partly drawn)	4.00 (4.0; 4.0)

----------
- System: immature F. hepatica flukes (Italian strain)
- test-summary: Ex vivo motility assay on immature liver flukes (Italian strain), single concentration and dose response
- Type: cell-based, Fasciola hepatica
- measurement-context: Fasciola hepatica; immature flukes, motility, 24 h exposure; read-out: EC50 with 95% CI on Immature Flukes (motility), 24 hour
pEC50: −log10 of the molar value.

compound	pEC50
CC1(C)CC[C@]2(NC(=O)N3CCOCC3)CC[C@]3(C)C(=CCC4[C@@]5(C)CC[C@@H]6OC(C)(C)OC[C@@]6(C)C5CC[C@]43C)C2C1 (stereo partly shown)	5.97

----------
- System: adult F. hepatica flukes (Italian strain)
- test-summary: Ex vivo dose response motility assay on adult liver flukes (Italian strain)
- Format: cell-based, Fasciola hepatica
- measurement-context: 13.3 µM, 24 h; adult flukes Italian strain; score 1 to 6
Recorded Average motility of 3 parasites treated with 13.3 µM, 24 hours by entry
attribute-measured: Average motility of 3 parasites treated with 13.3 µM, 24 hours

compound	tested-system	meas-value
CC1(C)CC[C@]2(NC(=O)N3CCCC3)CC[C@]3(C)C(=CCC4[C@@]5(C)CC[C@H](O)[C@@](C)(CO)C5CC[C@]43C)C2C1 (stereo partly drawn)	adult F. hepatica flukes (Italian strain)	1.00 (1.0;1.0)
CN1CCN(C(=O)N[C@]23CCC(C)(C)CC2C2=CCC4[C@@]5(C)CC[C@@H]6OC(C)(C)OC[C@@]6(C)C5CC[C@@]4(C)[C@]2(C)CC3)CC1 (stereo partly drawn)	adult F. hepatica flukes (Italian strain)	1.00 (1.0; 1.0)
CC1(C)CC[C@]2(NC(=O)N3CCNCC3)CC[C@]3(C)C(=CCC4[C@@]5(C)CCC6OC(C)(C)OC[C@@]6(C)C5CC[C@]43C)C2C1 (stereo partly drawn)	adult F. hepatica flukes (Italian strain)	1.00 (1.0;1.0)

----------
- Test system: adult F. hepatica flukes (Italian strain)
- test-summary: Ex vivo dose response motility assay on adult liver flukes (Italian strain)
- Type: cell-based, Fasciola hepatica
- measurement-context: 40 µM, 48 h; adult flukes Italian strain; score 1 to 6
attribute-measured: Average motility of 3 parasites treated with 40 µM, 48 hours

compound	meas-value
CSc1nc2cc(Cl)c(Oc3cccc(Cl)c3Cl)cc2[nH]1 [Triclabendazole, reference compound]	5.66 (5.0; 6.3)
CC1(C)CC[C@]2(NC(=O)N3CCNCC3)CC[C@]3(C)C(=CCC4[C@@]5(C)CCC6OC(C)(C)OC[C@@]6(C)C5CC[C@]43C)C2C1 (stereo partly drawn)	4.33 (3.6;4.9)
CN1CCN(C(=O)N[C@]23CCC(C)(C)CC2C2=CCC4[C@@]5(C)CC[C@@H]6OC(C)(C)OC[C@@]6(C)C5CC[C@@]4(C)[C@]2(C)CC3)CC1 (stereo partly drawn)	4.00 (4.0;4.0)

----------
- Tested on: wild strain adult F. hepatica
- test-summary: Ex vivo motility assay on adult liver flukes (wild strain)
- Format: cell-based, Fasciola hepatica
- measurement-context: 40 µM, wild strain adult flukes, score 1 good/normal to 6 no movement or dead
attribute-measured: Average motility of 4 parasites with 95% CI at 72 hour time point

molecule	meas-value
CC1(C)CC[C@]2(NC(=O)N3CCNCC3)CC[C@]3(C)C(=CCC4[C@@]5(C)CCC6OC(C)(C)OC[C@@]6(C)C5CC[C@]43C)C2C1 (some centres unmarked)	5.75 (5.2; 6.2)
CC(=O)OC[C@@]1(C)C2CC[C@]3(C)C(CC=C4C5CC(C)(C)CC[C@]5(NC(=O)N5CCCC5)CC[C@]43C)[C@@]2(C)CC[C@@H]1O (some centres unmarked)	5.00 (5.0;5.0)
CC(=O)OC[C@]12CCC(C)(C)CC1C1=CCC3[C@@]4(C)CC[C@H](O)[C@@](C)(CO)C4CC[C@@]3(C)[C@]1(C)CC2 (some centres unmarked)	3.25 (2;4.4)
CC1(C)CC[C@]2(NC(=O)N3CCOCC3)CC[C@]3(C)C(=CCC4[C@@]5(C)CC[C@@H]6OC(C)(C)OC[C@@]6(C)C5CC[C@]43C)C2C1 (some centres unmarked)	6.00 (6.0;6.0)
CSc1nc2cc(Cl)c(Oc3cccc(Cl)c3Cl)cc2[nH]1 [Triclabendazole, reference compound]	6.00 (6.0;6.0)
CC(=O)OCC1(C)C(OC(C)=O)CCC2(C)C1CCC1(C)C2CC=C2C3CC(C)(C)CCC3(NC(=O)N3CCCC3)CCC21C (centres unmarked)	4.25 (3.3;5.1)
CN1CCN(C(=O)N[C@]23CCC(C)(C)CC2C2=CCC4[C@@]5(C)CC[C@@H]6OC(C)(C)OC[C@@]6(C)C5CC[C@@]4(C)[C@]2(C)CC3)CC1 (some centres unmarked)	5.00 (5.0;5.0)
CC1(C)CC[C@]2(NC(=O)N3CCCC3)CC[C@]3(C)C(=CCC4[C@@]5(C)CCC6OC(C)(C)OC[C@@]6(C)C5CC[C@]43C)C2C1 (some centres unmarked)	4.75 (3.5;5.9)
CC1(C)CC[C@]2(NC(N)=O)CC[C@]3(C)C(=CCC4[C@@]5(C)CCC6OC(C)(C)OC[C@@]6(C)C5CC[C@]43C)C2C1 (some centres unmarked)	4.25 (3.2;5.7)
CC1(C)CC[C@]2(NC(=O)N3CCCC3)CC[C@]3(C)C(=CCC4[C@@]5(C)CC[C@H](O)[C@@](C)(CO)C5CC[C@]43C)C2C1 (some centres unmarked)	5.25 (4.7;5.7)
CC1(C)CC[C@]2(C(=O)O)CC[C@]3(C)C(=CC[C@@H]4[C@@]5(C)CC[C@@H]6OC(C)(C)OC[C@@]6(C)[C@@H]5CC[C@]43C)[C@@H]2C1	6.00 (6.0;6.0)

----------
- Tested on: Madin–Darby bovine kidney (MDBK) cells
- test-summary: MTT cell viability assay on MDBK cells
- Type: cell-based
- measurement-context: MDBK cells, MTT, 24 h exposure; read-out: CC50 with 95% CI on MDBK cells (cytotoxicity)
attribute-measured: CC50 (µM)

compound	attribute-measured	unit-label	meas-value
CC1(C)CC[C@]2(NC(=O)N3CCNCC3)CC[C@]3(C)C(=CCC4[C@@]5(C)CCC6OC(C)(C)OC[C@@]6(C)C5CC[C@]43C)C2C1 (stereo partly shown) [MC035]	CC50	µM	79.8

----------
- System: adult F. hepatica flukes (Italian strain)
- test-summary: Ex vivo dose response motility assay on adult liver flukes (Italian strain)
- Assay type: cell-based, Fasciola hepatica
- measurement-context: 40 µM, 72 h; adult flukes Italian strain; score 1 to 6
attribute-measured: Average motility of 3 parasites treated with 40 µM, 72 hours

compound	meas-value
CN1CCN(C(=O)N[C@]23CCC(C)(C)CC2C2=CCC4[C@@]5(C)CC[C@@H]6OC(C)(C)OC[C@@]6(C)C5CC[C@@]4(C)[C@]2(C)CC3)CC1 (stereo partly drawn)	5.00 (5.0;5.0)
CC1(C)CC[C@]2(NC(=O)N3CCCC3)CC[C@]3(C)C(=CCC4[C@@]5(C)CC[C@H](O)[C@@](C)(CO)C5CC[C@]43C)C2C1 (stereo partly drawn)	5.00 (5.0;5.0)
CC1(C)CC[C@]2(NC(=O)N3CCOCC3)CC[C@]3(C)C(=CCC4[C@@]5(C)CC[C@@H]6OC(C)(C)OC[C@@]6(C)C5CC[C@]43C)C2C1 (stereo partly drawn)	5.66 (5.0,6.3)
CC1(C)CC[C@]2(NC(=O)N3CCNCC3)CC[C@]3(C)C(=CCC4[C@@]5(C)CCC6OC(C)(C)OC[C@@]6(C)C5CC[C@]43C)C2C1 (stereo partly drawn)	5.00 (3.8;6.1)
CC1(C)CC[C@]2(C(=O)O)CC[C@]3(C)C(=CC[C@@H]4[C@@]5(C)CC[C@@H]6OC(C)(C)OC[C@@]6(C)[C@@H]5CC[C@]43C)[C@@H]2C1	5.33 (4.0;6.6)
CSc1nc2cc(Cl)c(Oc3cccc(Cl)c3Cl)cc2[nH]1 [Triclabendazole, reference compound]	6.00 (6.0; 6.0)
